melting point for assorted compounds

Example cases with answers are listed next.
CN1CCC(c2cnn3c(-c4cccc(NC(=O)c5cccc(C(F)(F)F)c5)c4)ccnc23)CC1: 183 to 185 °C
CN(C)C=Nc1ncc(C#Cc2ccc(Cl)cc2)c(Cl)n1: 195 to 197 °C
CCNc1nnc(-c2ccc3ncn(-c4ccc(SC)cc4)c3c2)o1: 226 to 227 °C
CN1CCN(NC(=O)Nc2cccc3c2C(=O)c2c-3n[nH]c2-c2ccc(N3CCNCC3)cc2)CC1: 254 °C
Cc1cc(S(=O)(=O)N2c3cc(F)ccc3-n3cccc3C2C)ccc1O (centres undefined): 191 to 193 °C

Please find the next compound below.
-- ask Please report the measured melting point for "CC(=O)OCn1c(C(=O)OC(C)C)nc(Cl)c1Cl"
-- reply 81 to 82 °C

====

value.type: melting point

CCCCCCCCc1cccc(CCC(N)(CO)CO)c1: 89 to 92 °C
CC(C)c1nn(-c2ccc(C(F)(F)F)cn2)cc1COc1cc(C=O)n(C)n1: 112 to 113 °C
c1cnc(NC2CCN(CC3CCc4ccccc4O3)CC2)nc1 (stereo unspecified): 142 °C
CCCNCC(=O)N1c2ccccc2N2CCc3cccc(c32)C1C (stereo unspecified): 113 to 118 °C

-- ask Please report the measured melting point for CC1(C)Oc2ccc(C#N)cc2[C@@H](NC(=O)c2ccc(Cl)cc2)[C@@H]1O (relative stereo)
-- reply 226 to 229 °C

-- ask Please report the measured melting point for "CC(=CCO)c1ccc(-c2ccccc2)cc1"
-- reply 112 to 114 °C

-- ask Please report the measured melting point for "COC(=O)NCc1nc(-c2cc(C(C)(C)C)c(O)c(C(C)(C)C)c2)cs1"
-- reply 94 to 95.9 °C

-- ask Please report the measured melting point for "COc1ccc(-n2nc3c4c([nH]cc-3c2=O)CCCCCC4)cc1"
-- reply 275 to 277 °C

-- ask Please report the measured melting point for "COc1cccc(OC)c1/C=C/S(=O)(=O)CS(=O)(=O)/C=C/c1c(OC)cccc1OC"
-- reply 118 to 120 °C

-- ask Please report the measured melting point for "COc1ccc(CCNC(=O)Cc2ccc(-c3ccccc3)cc2)cc1OC"
-- reply 103 to 105 °C

-- ask Please report the measured melting point for "COC(=O)c1ccc2oc3ccccc3c2c1C(=O)OC"
-- reply 126 °C

-- ask Please report the measured melting point for "COC(=O)c1ccc(C)cc1N(C)S(C)(=O)=O"
-- reply 100 to 103 °C

====

melting point for assorted compounds

COc1ccc(Cn2cnc3c(Cl)nc(F)nc32)cc1: 90 °C
COc1ccc(C(=O)Nc2ccccc2)cc1Nc1ccc(C)cc1: 187 to 188 °C
Cc1cc(-c2ccc(OC(F)(F)F)cc2)cc(-c2cccc(-c3cccc(S(=O)(=O)NC(C)(C)C)c3)n2)n1: 148 °C
Cc1nc2c(s1)-c1nc(N)ncc1CC2: 241 to 243 °C
CCC(=O)c1ccc(OC)c(O)c1: 91 to 92 °C

-- ask Please report the measured melting point for "CS(=O)(=O)Oc1cccc2c1CCCN2"
-- reply 74 to 76 °C

-- ask Please report the measured melting point for "CCOC(=O)c1cn(CCCl)c2cc(Cl)ccc2c1=O"
-- reply 208 to 210 °C

-- ask Please report the measured melting point for "CCN(CC)C(=O)c1ccoc1-c1ccc(C=O)cc1"
-- reply 64 to 66 °C

-- ask Please report the measured melting point for CC(CN1CCOCC1)N1CCN(c2ccccc2)CC1 (stereo unspecified)
-- reply 55 to 56 °C

-- ask Please report the measured melting point for "CC1(C)O[C@@H]2[C@H](O1)[C@@H](CO)O[C@H]2n1cnc2c(N)nc(I)nc21"
-- reply 185 to 187 °C

-- ask Please report the measured melting point for "COCOc1cccc(F)c1C#N"
-- reply 53 to 55 °C

====

melting point for assorted compounds

Example cases with answers are listed next.
COc1cc(OC)c2c(=O)c(I)coc2c1: 158 to 160 °C
COCc1cnc2c([N+](=O)[O-])ccc(C)c2c1Cl: 120 to 124 °C
CC(=O)Nc1c(C)cc2c(nc3n2CCC3)c1[N+](=O)[O-]: 198 °C

-- ask Please report the measured melting point for "Cn1cc(C(=O)CN2CCN(c3ncccn3)CC2)cc1C(=O)c1ccc([N+](=O)[O-])cc1"
-- reply 164 to 166 °C

-- ask Please report the measured melting point for CC(C(=O)NCCN(C)C)n1c(-c2ccc(Cl)cc2)nc2cccnc21 (stereo not given)
-- reply 130 to 133 °C

-- ask Please report the measured melting point for CC(C)(C)OC(=O)[C@@H](Cc1ccccc1)NC(=O)C1CN(c2ccc(C#N)cc2)C(=O)O1 (stereo not given in full)
-- reply 72 °C

====

value.type: melting point

Example cases with answers are listed next.
CC(=O)c1ccc(S(=O)(=O)Nc2cccnc2)cc1: 182 to 183 °C
OC(CNc1ccc2ncnn2n1)CN1CCC(OC(c2ccccc2)c2ccccc2)CC1 (configuration not stated): 82 to 87 °C

-- ask Please report the measured melting point for "CCc1nnc2c(O)nc3cc(Cl)ccc3n12"
-- reply > 300 °C

-- ask Please report the measured melting point for "CC(=O)NC(=Cc1cccnc1)C(=O)O"
-- reply 191 to 192 °C

-- ask Please report the measured melting point for CCOC(=O)C12CCC(=O)N1CC(=O)N2 (configuration not stated)
-- reply 116 °C

-- ask Please report the measured melting point for "Nc1nccnc1OCc1cccnc1"
-- reply 120 to 122 °C

-- ask Please report the measured melting point for "CCc1cc(OCc2ccccc2)ccc1C(=O)O"
-- reply 132 to 133 °C

====

value.type: melting point

Example cases with answers are listed next.
CC(CC1CCOCC1)(c1ccc(S(C)(=O)=O)cn1)c1ccc(-c2ccccn2)[nH]1 (centres undefined): 135 to 136 °C
CN(C)Cc1ccc(Cc2cnc(N[N+](=O)[O-])[nH]c2=O)cn1: 234 to 238 °C
Cc1ccccc1C(=O)Nc1ccc(C(=O)N2CCCC(N(C)C(=O)c3ccccc3)c3ccccc32)cc1 (centres undefined): 248 to 249 °C

-- ask Please report the measured melting point for "CCOC(=O)c1cncnc1Nc1ccccc1NC"
-- reply 153 to 155 °C

-- ask Please report the measured melting point for "O=C(c1ccc(CNc2ncnc3ccccc23)cc1)N1CCN(c2ncc(Cc3ccccc3)cn2)CC1"
-- reply 99 to 101 °C

-- ask Please report the measured melting point for "COc1cc2c(cc1C=NO)C(C)(C)CCC2(C)C"
-- reply 182 to 183 °C

-- ask Please report the measured melting point for "COC(=O)CCCc1cc2c(Cl)c(C#N)cnc2s1"
-- reply 55 to 57 °C

-- ask Please report the measured melting point for "COC(=O)c1ncn2c1CN=C(c1ccccc1F)c1cc(Cl)ccc1-2"
-- reply 179 to 181 °C

-- ask Please report the measured melting point for "COc1ccc(Cn2c(=O)n([C@H]3CC[C@H](O)CC3)c3ncc(C(F)(F)F)cc32)cc1OC"
-- reply 128 to 130 °C

-- ask Please report the measured melting point for "CCCN=C(N)Nc1ccnc(OCCCO)n1"
-- reply 183 to 184 °C

====

melting point for assorted compounds

Example cases with answers are listed next.
CCCc1c(OCCCOc2c(C(C)=O)ccc(OCCCC(=O)O)c2CCC)ccc(C(C)=O)c1O: 96 to 99 °C
CNC(=O)c1cnn(-c2ccc(Cl)cc2Cl)c1C#N: 182 to 183 °C
CC(c1oc2ccccc2c(=O)c1-c1cccc(F)c1)n1ccc2c(Cl)ncnc21 (stereo not given): 71 to 75 °C
C[C@H](C(=O)O)[C@H](O)CCCCc1ccccc1: 75 to 77 °C
Cc1cc(C)cc(-c2nnc(C(N)=O)o2)c1: 230 °C

-- ask Please report the measured melting point for "CCCCCCCCCCCCOC(=O)NS(=O)(=O)Nc1c(OC)cc(OC)cc1OC"
-- reply 133 to 136 °C

-- ask Please report the measured melting point for C=CC(=O)C(CC1CCOCC1)c1ccc(S(=O)(=O)C2CC2)cc1 (stereo not given)
-- reply 92 to 93 °C

====

value.type: melting point

CCCc1ccc2nc(COc3ccc(F)c(C(N)=O)c3F)sc2c1: 173 to 175 °C

-- ask Please report the measured melting point for "Cn1ncc2c1-c1c(Nc3ccccc3)sc(C(N)=O)c1CC2"
-- reply 140 to 141 °C

-- ask Please report the measured melting point for "COc1ccc(CC(=O)Nc2cc(Cl)c(Cl)cc2[N+](=O)[O-])cc1"
-- reply 124 to 126 °C

-- ask Please report the measured melting point for "Cc1nc(N2CCN(Cc3ccc(OC(F)F)cc3)C2=O)sc1C(=O)NCc1cccnc1"
-- reply 166 to 167 °C

-- ask Please report the measured melting point for "COc1ccccc1N1CCN(CCn2c(=O)c3cscc3n(C(C)=O)c2=O)CC1"
-- reply 128 to 129 °C

-- ask Please report the measured melting point for "O=C(O)Cc1ccc[nH]1"
-- reply 83 to 84 °C

-- ask Please report the measured melting point for "CCn1c(=O)c(C#N)c(N)c2ccc(C)nc21"
-- reply > 300 °C
